# Assay system: T1, monkey CD22 protein (ACROBiosystems, catalog number SI2-R52Ha) (monkey, UniProt F6W485 20-688)
# T1 construct: commercial protein; also called monkey CD22-ECD; monkey CD22-ECD-His
# T1 sequence: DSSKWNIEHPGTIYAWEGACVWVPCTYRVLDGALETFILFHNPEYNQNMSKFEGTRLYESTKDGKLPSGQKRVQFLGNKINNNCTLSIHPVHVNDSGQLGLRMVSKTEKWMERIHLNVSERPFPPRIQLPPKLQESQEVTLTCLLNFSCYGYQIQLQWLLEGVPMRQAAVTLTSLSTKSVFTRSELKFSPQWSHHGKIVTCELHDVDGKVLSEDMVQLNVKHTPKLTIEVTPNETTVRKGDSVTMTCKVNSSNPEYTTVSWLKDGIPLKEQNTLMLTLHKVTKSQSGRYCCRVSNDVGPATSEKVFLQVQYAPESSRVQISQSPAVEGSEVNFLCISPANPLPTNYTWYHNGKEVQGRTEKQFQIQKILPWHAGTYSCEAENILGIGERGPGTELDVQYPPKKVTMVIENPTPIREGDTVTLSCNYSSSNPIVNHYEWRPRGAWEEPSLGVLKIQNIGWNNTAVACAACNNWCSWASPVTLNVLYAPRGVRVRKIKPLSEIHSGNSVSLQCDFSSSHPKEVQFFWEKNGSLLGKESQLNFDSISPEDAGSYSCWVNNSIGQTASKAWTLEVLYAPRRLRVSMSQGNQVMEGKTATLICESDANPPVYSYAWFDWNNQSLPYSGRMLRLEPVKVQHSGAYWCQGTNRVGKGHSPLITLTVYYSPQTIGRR
# Assay overview: ELISA, coated monkey CD22 protein, antibody 0.0001 nM
Property measured: OD450 (OD450)
One number for each entry, in OD450.

Consider the reported OD450 for these binders:
[[record]]
binder = "HA22-hIgG1 (antibody, V domains shown) VH: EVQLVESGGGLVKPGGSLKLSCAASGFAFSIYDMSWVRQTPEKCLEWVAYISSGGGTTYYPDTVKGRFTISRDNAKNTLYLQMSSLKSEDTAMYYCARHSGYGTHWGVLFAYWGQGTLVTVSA VL: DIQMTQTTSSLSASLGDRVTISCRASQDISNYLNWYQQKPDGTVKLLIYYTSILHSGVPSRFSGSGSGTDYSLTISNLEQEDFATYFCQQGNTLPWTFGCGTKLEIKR"
unit_spec = "OD450"
recorded_measurement = 0.14

[[record]]
binder = "F2.121.9 (antibody, human IgG1, lambda, V domains shown, human-murine chimeric IgG1 lambda) VH: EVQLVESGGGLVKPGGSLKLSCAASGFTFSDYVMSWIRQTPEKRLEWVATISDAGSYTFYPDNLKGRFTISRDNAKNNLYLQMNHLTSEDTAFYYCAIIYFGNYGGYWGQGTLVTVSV VL: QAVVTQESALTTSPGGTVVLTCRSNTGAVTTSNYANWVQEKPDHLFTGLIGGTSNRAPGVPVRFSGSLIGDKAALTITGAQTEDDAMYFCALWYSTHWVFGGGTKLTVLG"
unit_spec = "OD450"
recorded_measurement = 0.05


// moving on: another record for OD450
Q: Can you look up the measured OD450 of F1.62.10 (antibody, human IgG1, kappa, V domains shown, human-murine chimeric IgG1 kappa) VH: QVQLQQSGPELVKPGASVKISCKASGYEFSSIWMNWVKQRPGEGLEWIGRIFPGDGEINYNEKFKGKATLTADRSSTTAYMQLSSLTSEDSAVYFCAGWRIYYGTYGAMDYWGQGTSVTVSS VL: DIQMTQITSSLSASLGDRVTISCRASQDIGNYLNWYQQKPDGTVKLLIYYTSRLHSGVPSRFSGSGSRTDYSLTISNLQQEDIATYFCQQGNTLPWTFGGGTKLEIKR for me?
A: 0.06
